tested on: SARS-CoV-2; assay type: cell-based; conditions: read-out: EC50 Antiviral assay
In this section, each of the molecules is paired with its reported pEC50.
Scale for pEC50: -log10 of concentration given in mol/L; no unit attached.

INSERT INTO assay_data (given_smiles, measured_quantity, meas_value) VALUES
  ('Cc1cc(-c2ccc(/N=N/c3ccc4c(S(=O)(=O)O)cc(S(=O)(=O)O)c(N)c4c3O)c(C)c2)ccc1/N=N/c1ccc2c(S(=O)(=O)O)cc(S(=O)(=O)O)c(N)c2c1O', 'pEC50', 4.51),
  ('NCCOc1cc(C(=O)Nc2cc(OCCN)c3ccccc3n2)nc(C(=O)Nc2cc(OCCN)c3ccccc3n2)c1', 'pEC50', 5.45);

q: Record lookup: for SARS-CoV-2, what pEC50 belongs to `Nc1c(S(=O)(=O)O)cc(Nc2ccc(Nc3nc(Cl)nc(Nc4cccc(S(=O)(=O)O)c4)n3)c(S(=O)(=O)O)c2)c2c1C(=O)c1ccccc1C2=O` ?
a: 4.79

====

molecular target: human N7-MTase RNMT-RAM (Homo sapiens, UniProt O43148); assay: Py-FLINT N7-MTase inhibition assay; format: biochemical
Sequence (O43148 whole entry): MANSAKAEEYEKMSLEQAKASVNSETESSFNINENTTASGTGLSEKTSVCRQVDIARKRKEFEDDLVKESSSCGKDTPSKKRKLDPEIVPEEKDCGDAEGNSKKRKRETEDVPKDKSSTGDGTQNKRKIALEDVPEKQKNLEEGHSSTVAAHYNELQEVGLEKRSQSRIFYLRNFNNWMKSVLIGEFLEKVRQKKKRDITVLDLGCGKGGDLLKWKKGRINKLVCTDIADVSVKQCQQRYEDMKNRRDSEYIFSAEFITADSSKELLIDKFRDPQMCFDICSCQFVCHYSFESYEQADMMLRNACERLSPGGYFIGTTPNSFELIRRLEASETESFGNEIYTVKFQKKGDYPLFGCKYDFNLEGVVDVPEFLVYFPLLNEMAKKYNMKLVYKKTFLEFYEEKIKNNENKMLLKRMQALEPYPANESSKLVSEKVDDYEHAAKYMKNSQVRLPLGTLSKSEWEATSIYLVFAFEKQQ
Sequence (Q9BTL3 whole entry partner): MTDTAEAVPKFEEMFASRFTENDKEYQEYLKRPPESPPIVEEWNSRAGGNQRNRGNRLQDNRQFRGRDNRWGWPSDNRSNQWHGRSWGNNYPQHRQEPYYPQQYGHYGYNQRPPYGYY
Recorded pIC50, one value per entry.
Conceptually, pIC50 converts a concentration in mol/L into minus its log10.

These solved cases illustrate the format of a correct answer.
INSERT INTO results (compound, meas_value) VALUES
  ('Oc1c(Cl)cc(Cl)c(Cl)c1Cc1c(O)c(Cl)cc(Cl)c1Cl [FI11, Hexachlorophene]', 5.10),
  ('NCCOc1cc(C(=O)Nc2cc(OCCN)c3ccccc3n2)nc(C(=O)Nc2cc(OCCN)c3ccccc3n2)c1 [LI3, Pyridostatin xCF3COO^-]', 5.51);

q: Which value of pIC50 has been reported for O=c1c2ccccc2[se]n1-c1ccccc1 [FI6, Ebselen] in the records?
a: 4.62

====

tested on: SARS-CoV-2; type: cell-based; settings: Huh 7 cells
Counter-ions that a name gives are not always drawn.
measured_quantity: CC50/EC50 Selectivity index

INSERT INTO measurements (compound, target_desc, meas_value) VALUES
  ('CC(C)N(CCC(=O)c1ccc2ccccc2c1)Cc1ccccc1 [LI7, ZM 39923 HCl]', 'SARS-CoV-2', 'not active'),
  ('Clc1cccc(/C=C/c2nn3c(-c4ccco4)nnc3s2)c1', 'SARS-CoV-2', 'not active'),
  ('Cc1cc(-c2ccc(/N=N/c3ccc4c(S(=O)(=O)O)cc(S(=O)(=O)O)c(N)c4c3O)c(C)c2)ccc1/N=N/c1ccc2c(S(=O)(=O)O)cc(S(=O)(=O)O)c(N)c2c1O', 'SARS-CoV-2', '1.15 ± 0.04'),
  ('COC(=O)c1c(NC(=O)c2cc3ccccc3o2)sc(C)c1C', 'SARS-CoV-2', 'not active'),
  ('O=C1c2c(O)ccc(O)c2C(=O)c2c(NCCNCCO)ccc(NCCNCCO)c21 [LI5, Mitoxantrone 2HCl]', 'SARS-CoV-2', 'not active');

--- query ---
q: Query: CC50/EC50 Selectivity index; subject: `NCCOc1cc(C(=O)Nc2cc(OCCN)c3ccccc3n2)nc(C(=O)Nc2cc(OCCN)c3ccccc3n2)c1`
a: 16.6 ± 6.1

====

test: in vitro; conditions: human
We begin with a simple list: items and their reported CC50.

INSERT INTO results (compound, meas_value) VALUES
  ('O=C1c2c(O)ccc(O)c2C(=O)c2c(NCCNCCO)ccc(NCCNCCO)c21 [LI5, Mitoxantrone 2HCl]', '< 0.04 µM'),
  ('Nc1ncnc2c1ncn2[C@@H]1O[C@H](C[C@@H](N)CC[C@H](N)C(=O)O)[C@@H](O)[C@H]1O', '> 100 µM');

Now look at this one.
q: Which value of CC50 has been reported for `COC(=O)c1c(NC(=O)c2cc3ccccc3o2)sc(C)c1C` in the records?
a: > 100 µM
